- Test system: MOLT-4
- Test method notes: NCI tumour cell line growth inhibition, 48 h
The source made the active and inactive calls. No stated cut-off is given here; in the data, active = GI50 up to about 1.1 µM and inactive = higher.
Choose the fitting class; nothing outside T (active), F (inactive) is accepted.

Q: Test call, this compound: CC/N=C(/C#N)NCC
Ans: F

Further cases:
Q: Per the assay record, what outcome was assigned to O=c1[nH]c(-n2[nH]c3c(c2=O)CCCC3)nc(O)c1-c1ccccc1 ?
Ans: F

Q: # fetch the recorded call for CN(C)CCNC(=O)c1cccc2c(Nc3ccc(S(N)(=O)=O)cc3)c3ccccc3nc12 here
Ans: T

Q: Please let me know the test result on file for CCOC(=O)/C(C#N)=C/c1coc2cc(C)cc(C)c2c1=O .
Ans: F

Q: // outcome(item) with item = O=[N+]([O-])c1c(F)c(F)c2c(c1F)Nc1ccccc1S2
Ans: F

Q: Call for entry Cn1c(=O)oc2cc(C(O)CN3CCN(Cc4ccccn4)CC3)c(Cl)cc21 (stereo unspecified) :
Ans: F

Q: Identify the outcome logged in this assay for the compound shown: N#CC(C#N)=C/C=C/c1c(Cl)cccc1Cl
Ans: F
